Quick record of IC50 values for EGFR (human) (UniProt P00533).

Record `CCCc1cnc(NC(=O)c2ccc(-c3nn([C@@H]4CCN(C(=O)/C=C/CN(C)C5CC5)C4)c4ncnc(N)c34)cc2)s1` . Reported IC50: 100 to 1000 nM

Input `CNC/C=C/C(=O)N1CC[C@@H](n2nc(-c3ccc(C(=O)Nc4cc(C(F)(F)F)ccn4)cc3)c3c(N)ncnc32)C1` . Output IC50: 1 to 100 nM

The recorded IC50 for entry `CC(C)c1cnc(NC(=O)c2ccc(-c3nn([C@@H]4CCN(C(=O)/C=C/CN(C)C5CC5)C4)c4ncnc(N)c34)cc2)s1` equals 100 to 1000 nM

The reported value for `CNC/C=C/C(=O)N1CC[C@@H](n2nc(-c3ccc(C(=O)Nc4cc(C)ccn4)cc3)c3c(N)ncnc32)C1` in terms of IC50 is 100 to 1000 nM

Lookup result for `CN(C/C=C/C(=O)N1CC[C@@H](n2nc(-c3ccc(C(=O)Nc4ncc(C(F)(F)F)s4)cc3)c3c(N)ncnc32)C1)C1CC1` ; measured IC50: 100 to 1000 nM

Quick note, IC50 for `CC#CC(=O)N[C@H]1CC[C@H](n2nc(-c3ccc(C(=O)Nc4cc(C(F)(F)F)ccn4)cc3)c3c(N)ncnc32)CC1` landed at 100 to 1000 nM

The compound identified as `CN(C/C=C/C(=O)N1CC[C@@H](n2nc(-c3ccc(C(=O)Nc4ncco4)cc3)c3c(N)ncnc32)C1)C1CC1` registered its IC50 at > 10 nM

====

The next entries give measured IC50 for EGFR (human).

Observed IC50 on EGFR (human), entry `CN(C/C=C/C(=O)N[C@H]1CC[C@H](n2nc(-c3ccc(C(=O)Nc4cc(C(F)(F)F)ccn4)cc3)c3c(N)ncnc32)CC1)C1CC1` , equals 0.1 to 1 µM

GET /values?item= `CN(C/C=C/C(=O)N1CC[C@@H](n2nc(-c3ccc(C(=O)Nc4ncc(C#N)s4)cc3)c3c(N)ncnc32)C1)C1CC1` &system= EGFR (human) returns IC50: 0.001 to 0.1 µM

Value (IC50, EGFR (human)) for record `CN(C/C=C/C(=O)N1CC[C@@H](n2nc(-c3ccc(C(=O)Nc4ncc(C5CC5)s4)cc3)c3c(N)ncnc32)C1)C1CC1` = < 0.001 µM

Tested system EGFR (human); IC50 recorded for `CN(C)C/C=C/C(=O)N1CC[C@@H](n2nc(-c3ccc(C(=O)Nc4cc(C(F)(F)F)ccn4)cc3)c3c(N)ncnc32)C1` was 0.1 to 1 µM

// returns IC50 for `CCc1cnc(NC(=O)c2ccc(-c3nn([C@@H]4CCN(C(=O)/C=C/CN(C)C5CC5)C4)c4ncnc(N)c34)cc2)s1` with EGFR (human); value = 0.1 to 1 µM

For `Cc1ccnc(NC(=O)c2ccc(-c3nn([C@H]4CC[C@H](NC(=O)/C=C/CN(C)C)CC4)c4ncnc(N)c34)cc2)c1` on EGFR (human), measured IC50 was 0.1 to 1 µM

Given the compound `CN(C/C=C/C(=O)N1CC[C@@H](n2nc(-c3ccc(C(=O)Nc4cc(C(F)(F)F)ccn4)cc3)c3c(N)ncnc32)C1)C1CC1` and test system EGFR (human), the measured IC50 is 0.1 to 1 µM

Result for `Nc1ncnc2c1c(-c1ccc(C(=O)Nc3cc(C(F)(F)F)ccn3)cc1)nn2[C@@H]1CCN(C(=O)/C=C/CNC2CC2)C1` , tested on EGFR (human), IC50: 0.001 to 0.1 µM

// IC50 (EGFR (human)) for `CN(C/C=C/C(=O)N1CC[C@@H](n2nc(-c3ccc(C(=O)Nc4nccs4)cc3)c3c(N)ncnc32)C1)C1CC1` = < 0.001 µM

IC50 value, target or system EGFR (human), for `CCCc1ccnc(NC(=O)c2ccc(-c3nn([C@@H]4CCN(C(=O)/C=C/CN(C)C5CC5)C4)c4ncnc(N)c34)cc2)c1` : 0.1 to 1 µM

# value of IC50, EGFR (human), item `CC(C)c1ccnc(NC(=O)c2ccc(-c3nn([C@@H]4CCN(C(=O)/C=C/CN(C)C)C4)c4ncnc(N)c34)cc2)c1` = 0.1 to 1 µM

The reported EGFR (human) IC50 of `CN(C/C=C/C(=O)N1CC[C@@H](n2nc(-c3ccc(C(=O)Nc4ccccn4)cc3)c3c(N)ncnc32)C1)C1CC1` is 0.1 to 1 µM

Short answer on EGFR (human) for `CN(C)C/C=C/C(=O)N1CC[C@@H](n2nc(-c3ccc(C(=O)Nc4cc(C#N)ccn4)cc3)c3c(N)ncnc32)C1` , IC50: 0.1 to 1 µM

IC50 value, target or system EGFR (human), for `Cc1ccnc(NC(=O)c2ccc(-c3nn([C@H]4CC[C@H](NC(=O)/C=C/CN(C)C5CC5)CC4)c4ncnc(N)c34)cc2)c1` : 0.1 to 1 µM

Entry `CN(C)C/C=C/C(=O)N1CC[C@@H](n2nc(-c3ccc(C(=O)Nc4ccccn4)cc3)c3c(N)ncnc32)C1` , tested on EGFR (human), has a reported IC50 of 0.1 to 1 µM

Reported IC50 (EGFR (human)) for entry `Cc1ccnc(NC(=O)c2ccc(-c3nn([C@@H]4CCN(C(=O)/C=C/CNC5CC5)C4)c4ncnc(N)c34)cc2)c1` is 0.1 to 1 µM
